Measured values drawn from patent US20220259315A1 for this set.

Assign koff to each entry below.
# SUBJECT OF TEST: T1, recombinant human Fc-PD-1 protein (human, UniProt Q15116 25-170)
# T1 construct: may be the same protein as the PD-1 Fc fusion of the Luminex assays; also called recombinant human PD-1 in an Fc fusion construct; not shown: Fc part not described
# ASSAY METHOD TEXT: Biacore, Fab, human Fc-PD-1
Numbers only, in s⁻¹.

I would be grateful if you could provide koff for each of the following entries.
1. A35789 (Fab, V domains shown, humanized Fab clone of 135C12; also called humanized antibody A35789) VH: EVQLVQSGAEVKKPGESLKISCKGSGYSFTNFYIHWVRQMPGKGLEWMGSIYPNYGDTAYNQKFKDRVTITADKSTSTAYMELSSLRSEDTAVYYCARGYSYAMDYWGQGTTVTVSS VL: DIQMTQSPSSVSASVGDRVTITCSASQGISGDLNWYQQKPGQAPRLLIYHTSSLHSGIPARFSGSGSGTDFTLTISRLEPEDFAVYYCQYYSKDLLTFGGGTKLEIK
2. A35777 (Fab, V domains shown, humanized Fab clone of 135C12; also called humanized antibody A35777) VH: EVQLVQSGAEVKKPGATVKISCKVSGYTFTNFYIHWVRQAPGKGLEWMGSIYPNYGDTAYNQKFKDRVTITADKSTSTAYMELSSLRSEDTAVYYCARGYSYAMDYWGQGTTVTVSS VL: DIQMTQSPSTLSASVGDRVTITCSASQGISGDLNWYQQKPGQAPRLLIYHTSSLHSGVPSRFSGSGSGTDFTLTISSLQPEDFATYYCQYYSKDLLTFGGGTKLEIK
3. A35775 (Fab, V domains shown, humanized Fab clone of 135C12; also called humanized antibody A35775) VH: EVQLVQSGAEVKKPGESLKISCKGSGYSFTNFYIHWVRQAPGQRLEWMGSIYPNYGDTAYNQKFKDRFVFSLDTSVSTAYLQISSLKAEDTAVYYCARGYSYAMDYWGQGTTVTVSS VL: DIQMTQSPSSVSASVGDRVTITCSASQGISGDLNWYQQKPGQAPRLLIYHTSSLHSGVPSRFSGSGSGTDFTLTISSLQPEDFATYYCQYYSKDLLTFGGGTKLEIK

0.000293
0.000352
0.000203
